- experimental system: UniProt:P09619
- protocol summary: In vitro inhibition of Platelet derived growth factor receptor beta autophosphorylation in MG-63 cells without plasma
- Assay type: cell-based
Would you mind telling me the reported IC50 of each entry?
Please answer using the number first and the unit second.

Please look up its IC50: "COc1cc2c(N3CCN(/C(S)=N\c4ccc(C#N)cc4)CC3)c(C#N)cnc2cc1OCCCN1CCCCC1"
5 nM

Please look up its IC50: "COc1cc2c(N3CCN(/C(S)=N\c4ccc(-c5ccccn5)cc4)CC3)c(C#N)cnc2cc1OCCCN1CCCCC1"
220 nM

Please look up its IC50: "COc1cc2c(N3CCN(C(=S)Nc4cccnc4)CC3)ncnc2cc1OCCN1CCCCC1"
3760 nM

Please look up its IC50: "COc1cc2c(N3CCN(C(=S)NCc4ccc(Cl)nc4)CC3)ncnc2cc1OCCCN1CCCCC1"
20 nM

* * *

- protocol summary: Area under curve was determined in dog by peroral dose at 5 mg/kg
- Assay type: ADME, organism-based, Canis lupus familiaris
- Design: dose 5 mg/kg, route oral
- measurement parameters: in vivo, po
experimental endpoint: AUC
Please answer using the number first and the unit second.

Please look up its AUC: "COc1cc2c(N3CCN(/C(S)=N\c4ccc(-c5ccccn5)cc4)CC3)ncnc2cc1OCCN1CCCCC1"
333 ng·h/mL

* * *

- protocol summary: Percent bioavailability was determined in rat by iv/po dose at 10 mg/kg
- Type: ADME, organism-based
- measurement parameters: in vivo
experimental endpoint: bioavailability (%)
Numbers only; they are read as %.

Please look up its bioavailability: "COc1cc2c(N3CCN(/C(S)=N\c4ccc(-c5ccccn5)cc4)CC3)ncnc2cc1OCCN1CCCCC1"
8.82

* * *

- protocol summary: Percent bioavailability was determined in dog by iv/po dose at 8.69 mg/kg
- Format: ADME, organism-based, Canis lupus familiaris
- measurement parameters: in vivo
experimental endpoint: bioavailability
Please answer using the number first and the unit second.

Please look up its bioavailability: "COc1cc2c(N3CCN(C(=S)NCc4cnc(C)cn4)CC3)ncnc2cc1OCCN1CCCCC1"
38.8%

* * *

- protocol summary: Maximum concentration was determined in dog by iv/po dose at 8.69 mg/kg
- Format: ADME, organism-based, Canis lupus familiaris
- Design: dose 8.69 mg/kg
- measurement parameters: in vivo
experimental endpoint: Cmax (ng/mL)
Numbers only; they are read as ng/mL.

Please look up its Cmax: "COc1cc2c(N3CCN(C(=S)NCc4cnc(C)cn4)CC3)ncnc2cc1OCCN1CCCCC1"
297

* * *

Would you mind telling me the reported pIC50 of each entry?
- experimental system: UniProt P09619
- protocol summary: In vitro inhibition of Platelet derived growth factor receptor beta autophosphorylation in MG-63 cells without plasma
- Type: cell-based
Convention used: pIC50 is expressed as -log10 of the molar concentration.

Please look up its pIC50: "COc1cc2c(N3CCN(/C(S)=N\Cc4ccc(C)o4)CC3)ncnc2cc1OCCCN1CCCCC1"
7.10

Please look up its pIC50: "COc1cc2c(N3CCN(C(=S)NCc4ccc(C(F)(F)F)nc4)CC3)ncnc2cc1OCCCN1CCCCC1"
7.52

Please look up its pIC50: "COc1cc2c(N3CCN(/C(S)=N\Cc4cccnc4)CC3)ncnc2cc1OCCN1CCCCC1"
5.68

Please look up its pIC50: "COc1cc2c(N3CCN(C(=S)Nc4ccc(Cl)nc4)CC3)ncnc2cc1OCCN1CCCCC1"
6.05

Please look up its pIC50: "COc1cc2c(N3CCN(/C(S)=N\Cc4ccc5c(c4)OCO5)CC3)ncnc2cc1OCCN1CCCC1"
8.30

Please look up its pIC50: "COc1cc2c(N3CCN(/C(S)=N\Cc4ccco4)CC3)ncnc2cc1OCCN1CCCC1"
6.80

Please look up its pIC50: "COc1cc2c(N3CCN(/C(S)=N\c4nccs4)CC3)ncnc2cc1OCCN1CCCCC1"
5.70

Please look up its pIC50: "COc1cc2c(N3CCN(/C(=N\Cc4ccc(C(C)C)cc4)NC#N)CC3)ncnc2cc1OCCCN1CCCCC1"
6.04

Please look up its pIC50: "COc1cc2c(N3CCN(/C(S)=N\Cc4ccc(-c5ccccc5)nc4)CC3)ncnc2cc1OCCCN1CCCCC1"
7.70

Please look up its pIC50: "COc1cc2c(N3CCN(/C(S)=N\Cc4cccnc4)CC3)ncnc2cc1OCCCN1CCCCC1"
7.30

Please look up its pIC50: "COc1cc2c(N3CCN(C(=NC#N)Nc4ccc(C(C)(C)C)cc4)CC3)ncnc2cc1OCCCN1CCCCC1"
6.10

Please look up its pIC50: "COc1cc2c(N3CCN(C(=NC#N)Nc4ccncc4)CC3)ncnc2cc1OCCCN1CCCCC1"
4.50

Please look up its pIC50: "COc1cc2c(N3CCN(C(=S)NCc4ccc(N)nc4)CC3)ncnc2cc1OCCN1CCCCC1"
5.24

Please look up its pIC50: "COc1cc2c(N3CCN(/C(S)=N\c4ccnc(C#N)c4)CC3)ncnc2cc1OCCN1CCCCC1"
5.81

Please look up its pIC50: "COc1cc2c(N3CCN(/C(=N\c4ccc(-c5ccccn5)cc4)NC#N)CC3)ncnc2cc1OCCCN1CCCCC1"
6.38

Please look up its pIC50: "COc1cc2c(N3CCN(C(=S)NCc4ccc(-c5ccncc5)cc4)CC3)ncnc2cc1OCCN1CCCCC1"
5.02

Please look up its pIC50: "COc1cc2c(N3CCN(/C(S)=N\c4ccc(Br)cc4)CC3)ncnc2cc1OCCN1CCOCC1"
6.74

Please look up its pIC50: "COc1cc2c(N3CCN(C(=S)NCc4cnc(C)cn4)CC3)ncnc2cc1OCCCN1CCCCC1"
6.85

Please look up its pIC50: "COc1cc2c(N3CCN(/C(S)=N\c4ccc(-c5ccccc5)nc4)CC3)c(C#N)cnc2cc1OCCCN1CCCCC1"
6.82

Please look up its pIC50: "COc1cc2c(N3CCN(C(=S)Nc4ccc(Br)cc4)CC3)ncnc2cc1OCCN1CCCC1"
6.46

Please look up its pIC50: "COc1cc2c(N3CCN(/C(S)=N\Cc4ccc(C(F)(F)F)nc4)CC3)ncnc2cc1OCCCN1CCOCC1"
8.30

* * *

- protocol summary: Percent bioavailability was determined in dog by iv/po dose at 8.09 mg/kg
- Format: ADME, organism-based, Canis lupus familiaris
- measurement parameters: in vivo
experimental endpoint: bioavailability
Please answer using the number first and the unit second.

Please look up its bioavailability: "COc1cc2c(N3CCN(C(=S)NCc4ccc5c(c4)OCO5)CC3)ncnc2cc1OCCN1CCCCC1"
102%

* * *

- protocol summary: Plasma half life was determined in dog by iv/po dose at 5 mg/kg
- Type: ADME, organism-based, Canis lupus familiaris
- Design: dose 5 mg/kg
experimental endpoint: half-life
Please answer using the number first and the unit second.

Please look up its half-life: "COc1cc2c(N3CCN(/C(S)=N\c4ccc(-c5ccccn5)cc4)CC3)ncnc2cc1OCCN1CCCCC1"
7.58 h

* * *

- experimental system: Platelet-derived growth factor receptor beta (Homo sapiens)
- protocol summary: In vitro inhibition of Platelet derived growth factor receptor beta autophosphorylation in MG-63 cells with 45% human plasma
- Assay type: cell-based
experimental endpoint: pIC50
Convention used: pIC50 is expressed as -log10 of the molar concentration.

Please look up its pIC50: "COc1cc2c(N3CCN(/C(S)=N\c4ccnc(C#N)c4)CC3)ncnc2cc1OCCN1CCCCC1"
5.75

Please look up its pIC50: "COc1cc2c(N3CCN(/C(=N\Cc4ccc(C(C)C)cc4)NC#N)CC3)ncnc2cc1OCCCN1CCCCC1"
6.01

Please look up its pIC50: "COc1cc2c(N3CCN(C(=S)Nc4ccc(Cl)nc4)CC3)ncnc2cc1OCCN1CCCCC1"
6.29

Please look up its pIC50: "COc1cc2c(N3CCN(C(=S)NCc4ccc(C)nc4Cl)CC3)ncnc2cc1OCCN1CCCCC1"
6.46

Please look up its pIC50: "COc1cc2c(N3CCN(/C(=N\Cc4cc(C)on4)NC#N)CC3)ncnc2cc1OCCCN1CCCCC1"
5.63

* * *

- experimental system: Platelet-derived growth factor receptor beta (Homo sapiens, UniProt P09619)
- Sequence (P09619 whole entry): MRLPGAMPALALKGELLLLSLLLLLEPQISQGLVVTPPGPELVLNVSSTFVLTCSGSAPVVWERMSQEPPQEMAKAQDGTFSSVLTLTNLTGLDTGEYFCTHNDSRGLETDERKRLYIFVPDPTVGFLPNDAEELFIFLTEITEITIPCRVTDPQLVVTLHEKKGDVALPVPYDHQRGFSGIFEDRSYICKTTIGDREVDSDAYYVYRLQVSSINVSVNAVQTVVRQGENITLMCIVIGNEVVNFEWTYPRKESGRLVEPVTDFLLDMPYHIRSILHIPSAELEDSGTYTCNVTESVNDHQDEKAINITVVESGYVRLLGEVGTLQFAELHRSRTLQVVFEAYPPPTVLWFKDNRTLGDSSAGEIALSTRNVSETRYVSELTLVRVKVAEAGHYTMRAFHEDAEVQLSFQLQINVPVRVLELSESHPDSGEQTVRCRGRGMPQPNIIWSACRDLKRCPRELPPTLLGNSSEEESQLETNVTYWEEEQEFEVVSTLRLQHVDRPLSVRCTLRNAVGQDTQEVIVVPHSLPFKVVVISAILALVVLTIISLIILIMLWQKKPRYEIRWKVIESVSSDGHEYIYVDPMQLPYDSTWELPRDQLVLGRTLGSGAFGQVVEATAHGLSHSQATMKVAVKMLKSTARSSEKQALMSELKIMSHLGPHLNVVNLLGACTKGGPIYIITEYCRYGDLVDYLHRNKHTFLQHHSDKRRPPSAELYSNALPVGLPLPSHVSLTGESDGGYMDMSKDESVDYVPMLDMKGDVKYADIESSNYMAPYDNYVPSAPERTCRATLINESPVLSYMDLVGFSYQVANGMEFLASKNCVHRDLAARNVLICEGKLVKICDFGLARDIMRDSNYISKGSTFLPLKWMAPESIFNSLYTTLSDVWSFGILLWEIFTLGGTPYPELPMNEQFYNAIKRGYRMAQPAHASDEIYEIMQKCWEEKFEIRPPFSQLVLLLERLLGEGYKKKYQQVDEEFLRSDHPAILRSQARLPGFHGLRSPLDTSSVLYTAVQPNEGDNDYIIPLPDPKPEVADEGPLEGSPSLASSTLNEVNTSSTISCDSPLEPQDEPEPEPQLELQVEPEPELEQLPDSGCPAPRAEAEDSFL
- protocol summary: In vitro inhibition of Platelet derived growth factor receptor beta autophosphorylation in MG-63 cells without plasma
- Type: cell-based
pIC50: −log10 of the molar value.
Threshold rule: pIC50 greater than or equal to 6 is yes; below that, no.

Could you tell me if the measured pIC50 of "COc1cc2c(N3CCN(/C(S)=N\Cc4ccc(C(F)(F)F)nc4)CC3)c(C#N)cnc2cc1OCCCN1CCCCC1" reaches 6 or more?
yes

Could you tell me if the measured pIC50 of "COc1cc2c(N3CCN(/C(=N\Cc4ccc(C(F)(F)F)nc4)NC#N)CC3)ncnc2cc1OCCCN1CCCCC1" reaches 6 or more?
no

Could you tell me if the measured pIC50 of "COc1cc2c(N3CCN(/C(S)=N\Cc4ccccn4)CC3)ncnc2cc1OCCN1CCCCC1" reaches 6 or more?
no

Could you tell me if the measured pIC50 of "COc1cc2c(N3CCN(/C(S)=N\Cc4ccnc(Cl)c4)CC3)ncnc2cc1OCCN1CCCCC1" reaches 6 or more?
no

Could you tell me if the measured pIC50 of "COc1cc2c(N3CCN(C(=S)Nc4ccc(-c5ccccn5)cc4)CC3)ncnc2cc1OCCCN1CCCCC1" reaches 6 or more?
yes

Could you tell me if the measured pIC50 of "COc1cc2c(N3CCN(C(=S)NCc4ccncc4)CC3)ncnc2cc1OCCCN1CCCCC1" reaches 6 or more?
no
